Values from patent US20020137929A1

A collection of compounds and their measured Preemergence herbicidal rating CHEAL
Tested on: CHEAL (Lambsquarters, Common)
test.method.notes: Preemergence herbicidal evaluation
Assay type: in vivo, Chenopodium album
conditions.used: rate 0.2500 kg/ha; rated 4-5 weeks after treatment
From the text: Results of herbicide evaluation are expressed on a rating scale (0-9). The scale is based upon a visual observation of plant stand, vigor, malformation, size, chlorosis and overall plant appearance as compared with a control. […] The compounds evaluated are reported by compound number given in Example 37.

mol	Preemergence herbicidal rating CHEAL
Cn1c(C(F)(F)F)cc(=O)n(-c2cc(N=C3SCC(=O)N3CC(=O)OCC3CCCCC3)c(Cl)cc2F)c1=O	9.0
CCOC(=O)[C@H](Cc1ccccc1)N1C(=O)CSC1=Nc1cc(-n2c(=O)cc(C(F)(F)F)n(C)c2=O)c(F)cc1Cl	9.0
Cn1c(C(F)(F)F)cc(=O)n(-c2cc(N=C3SCC(=O)N3Cc3ccccc3)c(Cl)cc2F)c1=O	9.0
